test: HCV Replicon Luciferase Assay: To evaluate compound efficacy, titrated compounds were transferred to sterile 384-well tissue culture treated plates, and the plates were seeded with HCV replicon cells (50 μL at a density of 2.4×10^3 cells/well) in DMEM containing 4% FBS (final DMSO concentration at 0.5%). After 3 days incubation at 37° C., cells were analyzed for Renilla Luciferase activity using the EnduRen substrate (Promega cat #E6485) according to the manufacturer's directions. Briefly, the EnduRen substrate was diluted in DMEM and then added to the plates to a final concentration of 7.5 μM. The plates were incubated for at least 1 h at 37° C. then read on a Viewlux Imager (PerkinElmer) using a luminescence program. The 50% effective concentration (EC50) was calculated using the four-parameter logistic formula noted above.To assess cytotoxicity of compounds, Cell Titer-Blue (Promega) was added to the EnduRen-containing plates and incubated for at least 4 hrs at 37° C. The fluorescence signal from each well was read using a Viewlux Imager. All CC50 values were calculated using the four-parameter logistic formula.; details: 72 h
pEC50: −log10 of the molar value.
Measurement Name: pEC50

In: What value of pEC50 has been reported for the following compound? CNC(=O)c1c(-c2ccc(F)cc2)oc2cc(N(CCF)S(C)(=O)=O)c(-c3cccc(C(=O)N[C@@H](COC)C4CC4)c3)cc12
Out: > 7.00

In: Thanks! And CNC(=O)c1c(-c2ccc(F)cc2)oc2cc(N(CCF)S(C)(=O)=O)c(-c3cccc(C(=O)N[C@H](COC)C4CC4)c3)cc12 ?
Out: > 7.00
